All values here come from paper PMC7296983.

System under test: PRMT1 (Homo sapiens, UniProt Q99873)
Sequence (Q99873 whole entry, species assumed): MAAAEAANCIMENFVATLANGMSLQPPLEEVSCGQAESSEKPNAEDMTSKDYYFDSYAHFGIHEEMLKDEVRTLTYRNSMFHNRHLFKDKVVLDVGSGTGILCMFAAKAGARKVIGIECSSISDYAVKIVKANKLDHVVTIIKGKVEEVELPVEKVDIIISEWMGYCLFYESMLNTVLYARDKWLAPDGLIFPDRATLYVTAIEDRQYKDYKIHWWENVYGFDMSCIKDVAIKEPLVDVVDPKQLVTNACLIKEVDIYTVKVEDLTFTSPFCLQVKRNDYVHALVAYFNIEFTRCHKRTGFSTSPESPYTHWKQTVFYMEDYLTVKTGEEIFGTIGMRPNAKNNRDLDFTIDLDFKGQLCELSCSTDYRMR

Smiles input	IC50
NC(=O)c1cccc(C#CCN(CC[C@H](N)C(=O)O)C[C@H]2O[C@@H](n3cnc4c(N)ncnc43)[C@H](O)[C@@H]2O)c1	> 100 µM

* * *

System under test: TbPRMT7 (Trypanosoma brucei brucei)
Sequence (Q582G4 whole entry): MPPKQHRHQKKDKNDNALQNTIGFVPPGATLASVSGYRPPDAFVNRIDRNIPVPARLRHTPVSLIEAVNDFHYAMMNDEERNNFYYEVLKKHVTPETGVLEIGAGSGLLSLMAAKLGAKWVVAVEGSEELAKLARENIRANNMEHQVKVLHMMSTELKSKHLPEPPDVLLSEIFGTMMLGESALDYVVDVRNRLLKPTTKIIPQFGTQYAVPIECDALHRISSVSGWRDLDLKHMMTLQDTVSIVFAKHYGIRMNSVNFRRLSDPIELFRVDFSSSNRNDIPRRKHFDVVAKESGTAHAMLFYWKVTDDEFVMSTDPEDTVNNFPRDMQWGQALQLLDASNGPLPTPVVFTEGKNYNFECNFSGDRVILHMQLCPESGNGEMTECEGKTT
pIC50: −log10 of the molar value.
Quantity: pIC50

Molecule	Quantity	Assay result
NC(=O)c1cccc(C#CCN(CC[C@H](N)C(=O)O)C[C@H]2O[C@@H](n3cnc4c(N)ncnc43)[C@H](O)[C@@H]2O)c1 [Compound 2a]	pIC50	< 4.48

* * *

System under test: NNMT (Homo sapiens, UniProt P40261)
Sequence (P40261 1-264): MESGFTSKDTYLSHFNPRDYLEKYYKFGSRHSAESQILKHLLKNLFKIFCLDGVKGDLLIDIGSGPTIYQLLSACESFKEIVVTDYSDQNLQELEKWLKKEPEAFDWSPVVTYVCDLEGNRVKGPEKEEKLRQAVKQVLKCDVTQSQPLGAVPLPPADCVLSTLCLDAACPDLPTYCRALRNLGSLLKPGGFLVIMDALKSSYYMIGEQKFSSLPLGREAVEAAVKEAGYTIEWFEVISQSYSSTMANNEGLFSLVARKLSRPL
Procedure details: SAH hydrolase
Assay type: biochemical
Quantity: decrease of inhibitory activity compared with 1a

Smiles input	System under test	Assay result
NC(=O)c1cccc(CCCN(CCC[C@H](N)C(=O)O)C[C@H]2O[C@@H](n3cnc4c(N)ncnc43)[C@H](O)[C@@H]2O)c1	NNMT (Homo sapiens, UniProt P40261)	70 fold
